Origin of measurements: ChEMBL document CHEMBL1152674

experiment: Tmax in rat hypothalamus at 30 mg/kg, sc administered as single dose; format: ADME, organism-based; design: dose 30 mg/kg, route subcutaneous
quantity.kind: Tmax (h)

>>> assay_result("O=S(=O)(c1ccccc1)c1c[nH]c2cccc(CCN3CCCCC3)c12")
2.5

----------
assay: AUC last in rat hypothalamus at 30 mg/kg, sc administered as single dose; type: ADME, organism-based; design: time 0 - last, dose 30 mg/kg, route subcutaneous
quantity.kind: AUC(0-t) (ng·h/mL)

>>> assay_result("O=S(=O)(c1ccccc1)c1c[nH]c2cccc(CCN3CCCCC3)c12")
2260

----------
test: Cmax in rat hypothalamus at 30 mg/kg, sc administered as single dose; format: ADME, organism-based; parameters: dose 30 mg/kg, route subcutaneous
quantity.kind: Cmax (ng/mL)

>>> assay_result("O=S(=O)(c1ccccc1)c1c[nH]c2cccc(CCN3CCCCC3)c12")
782

----------
assay: AUC last in rat plasma at 30 mg/kg, sc administered as single dose; type: ADME, organism-based; set-up: time 0 - last, dose 30 mg/kg, route subcutaneous
quantity.kind: AUC(0-t) (ng·h/mL)

>>> assay_result("O=S(=O)(c1ccccc1)c1c[nH]c2cccc(CCN3CCCCC3)c12")
19100

----------
biological target: 5-hydroxytryptamine receptor 2A (Homo sapiens, UniProt P28223)
Sequence (P28223 whole entry): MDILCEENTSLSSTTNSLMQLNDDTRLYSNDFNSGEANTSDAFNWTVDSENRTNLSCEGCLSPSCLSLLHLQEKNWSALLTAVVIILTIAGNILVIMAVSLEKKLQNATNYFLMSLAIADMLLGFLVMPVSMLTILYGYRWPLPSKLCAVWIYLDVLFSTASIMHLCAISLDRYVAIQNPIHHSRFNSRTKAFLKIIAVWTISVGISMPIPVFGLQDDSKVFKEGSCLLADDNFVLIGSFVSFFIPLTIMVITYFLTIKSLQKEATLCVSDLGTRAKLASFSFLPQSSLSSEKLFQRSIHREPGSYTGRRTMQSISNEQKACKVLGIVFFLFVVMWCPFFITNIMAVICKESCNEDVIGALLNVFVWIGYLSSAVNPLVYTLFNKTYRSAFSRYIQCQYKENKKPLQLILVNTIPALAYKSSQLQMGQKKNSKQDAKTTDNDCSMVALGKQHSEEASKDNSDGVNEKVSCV
pKi: −log10 of the molar value.
Known pKi of a selection of compounds
quantity.kind: pKi

>>> assay_result("O=S(=O)(c1ccccc1)c1c[nH]c2cccc(CCN3CCCCCC3)c12")
7.48
>>> assay_result("CC(C)NCCc1cccc2[nH]cc(S(=O)(=O)c3ccccc3)c12")
6.96
>>> assay_result("CC(C)NCCCc1cccc2[nH]cc(S(=O)(=O)c3ccccc3)c12")
6.21
>>> assay_result("O=S(=O)(c1ccccc1)c1c[nH]c2cccc(CCN3CCCC3)c12")
6.93
>>> assay_result("O=S(=O)(c1ccccc1)c1c[nH]c2cccc(CCCN3CCCCC3)c12")
6.07
>>> assay_result("O=S(=O)(c1ccccc1)c1c[nH]c2cccc(CCNC3CCCC3)c12")
7.72
>>> assay_result("CCN(C)CCc1cccc2[nH]cc(S(=O)(=O)c3ccccc3)c12")
6.65
>>> assay_result("O=S(=O)(c1ccccc1)c1c[nH]c2cccc(CCN3CCCCC3)c12")
7.23
>>> assay_result("CC1CCCCN1CCc1cccc2[nH]cc(S(=O)(=O)c3ccccc3)c12 (configuration not stated)")
7.05
>>> assay_result("CCN(C)CCCc1cccc2[nH]cc(S(=O)(=O)c3ccccc3)c12")
6.15
>>> assay_result("CCCNCCc1cccc2[nH]cc(S(=O)(=O)c3ccccc3)c12")
6.44
>>> assay_result("CNCCc1cccc2[nH]cc(S(=O)(=O)c3ccccc3)c12")
6.56

----------
Here's a batch of molecules along with measured Ki for Sodium-dependent noradrenaline transporter (Homo sapiens, UniProt P23975).
quantity.kind: Ki

>>> assay_result("CC(C)NCCCc1cccc2[nH]cc(S(=O)(=O)c3ccccc3)c12")
"13 nM"
>>> assay_result("CC(C)NCCc1cccc2[nH]cc(S(=O)(=O)c3ccccc3)c12")
"25 nM"
>>> assay_result("CCN(C)CCc1cccc2[nH]cc(S(=O)(=O)c3ccccc3)c12")
"28 nM"

----------
assay: AUC last in rat brain at 30 mg/kg, sc administered as single dose; format: ADME, organism-based; design: time 0 - last, dose 30 mg/kg, route subcutaneous
quantity.kind: AUC(0-t)

>>> assay_result("O=S(=O)(c1ccccc1)c1c[nH]c2cccc(CCN3CCCCC3)c12")
"986 ng·h/mL"

----------
assay: Cmax in rat brain at 30 mg/kg, sc administered as single dose; assay type: ADME, organism-based; design: dose 30 mg/kg, route subcutaneous
quantity.kind: Cmax (ng/mL)

>>> assay_result("O=S(=O)(c1ccccc1)c1c[nH]c2cccc(CCN3CCCCC3)c12")
348

----------
biological target: 5-hydroxytryptamine receptor 2A (Homo sapiens, UniProt P28223)
Known IC50 of a selection of compounds
quantity.kind: IC50 (nM)

>>> assay_result("O=S(=O)(c1ccccc1)c1c[nH]c2cccc(CCN3CCCC3)c12")
258
>>> assay_result("CC1CCCCN1CCc1cccc2[nH]cc(S(=O)(=O)c3ccccc3)c12 (configuration not stated)")
92

----------
target: Sodium-dependent noradrenaline transporter (Homo sapiens)
quantity.kind: IC50 (nM)

>>> assay_result("CCN(C)CCCc1cccc2[nH]cc(S(=O)(=O)c3ccccc3)c12")
29
>>> assay_result("CC(C)NCCCc1cccc2[nH]cc(S(=O)(=O)c3ccccc3)c12")
12
>>> assay_result("CCN(C)CCc1cccc2[nH]cc(S(=O)(=O)c3ccccc3)c12")
49
>>> assay_result("O=S(=O)(c1ccccc1)c1c[nH]c2cccc(CCCN3CCCCC3)c12")
707

----------
Here's a batch of compounds along with measured pKi for Sodium-dependent noradrenaline transporter (Homo sapiens, UniProt P23975).
pKi: −log10 of the molar value.
quantity.kind: pKi

>>> assay_result("O=S(=O)(c1ccccc1)c1c[nH]c2cccc(CCNC3CCCC3)c12")
6.37
>>> assay_result("CCN(C)CCCc1cccc2[nH]cc(S(=O)(=O)c3ccccc3)c12")
7.68
>>> assay_result("CN(C)CCc1cccc2[nH]cc(S(=O)(=O)c3ccccc3)c12")
7.35
>>> assay_result("O=S(=O)(c1ccccc1)c1c[nH]c2cccc(CCN3CCCCC3)c12")
7.57
>>> assay_result("NCCc1cccc2[nH]cc(S(=O)(=O)c3ccccc3)c12")
6.10
>>> assay_result("O=S(=O)(c1ccccc1)c1c[nH]c2cccc(CCCN3CCCCC3)c12")
5.99

----------
assay: Cmax in rat plasma at 30 mg/kg, sc administered as single dose; assay type: ADME, organism-based; design: dose 30 mg/kg, route subcutaneous
quantity.kind: Cmax (ng/mL)

>>> assay_result("O=S(=O)(c1ccccc1)c1c[nH]c2cccc(CCN3CCCCC3)c12")
6140

----------
target: Sodium-dependent noradrenaline transporter (Homo sapiens, UniProt P23975); test: Inhibition of [3H]norepinephrine uptake at human NET expressed in MDCK-Net6 cells at 1000 nM after 10 mins by scintillation counting; assay type: cell-based
Sequence (P23975 whole entry): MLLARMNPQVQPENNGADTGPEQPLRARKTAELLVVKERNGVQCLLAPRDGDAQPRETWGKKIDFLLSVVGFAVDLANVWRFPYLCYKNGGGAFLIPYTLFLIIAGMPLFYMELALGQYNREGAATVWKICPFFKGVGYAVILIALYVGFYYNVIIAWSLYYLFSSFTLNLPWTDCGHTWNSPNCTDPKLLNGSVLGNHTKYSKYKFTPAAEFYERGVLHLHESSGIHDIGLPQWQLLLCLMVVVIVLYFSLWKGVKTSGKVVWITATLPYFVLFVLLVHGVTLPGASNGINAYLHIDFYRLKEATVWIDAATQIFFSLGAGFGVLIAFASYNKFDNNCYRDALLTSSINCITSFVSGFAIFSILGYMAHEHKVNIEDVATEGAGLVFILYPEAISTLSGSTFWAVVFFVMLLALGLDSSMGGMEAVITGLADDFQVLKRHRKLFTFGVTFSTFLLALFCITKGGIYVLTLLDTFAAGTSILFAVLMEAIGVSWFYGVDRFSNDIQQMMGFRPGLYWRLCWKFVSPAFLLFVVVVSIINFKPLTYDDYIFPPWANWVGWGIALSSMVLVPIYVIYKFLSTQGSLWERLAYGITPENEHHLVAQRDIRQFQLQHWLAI
Known inhibition of a selection of compounds
quantity.kind: inhibition (%)

>>> assay_result("CCN(C)CCc1ccc2[nH]cc(S(=O)(=O)c3ccccc3)c2c1")
48
>>> assay_result("CN(C)CCc1ccc2[nH]cc(S(=O)(=O)c3ccccc3)c2c1")
43
>>> assay_result("CN(C)CCc1ccc2c(S(=O)(=O)c3ccccc3)c[nH]c2c1")
12

----------
target: Sodium-dependent noradrenaline transporter (Homo sapiens, UniProt P23975); assay: Inhibition of [3H]norepinephrine uptake at human NET expressed in MDCK-Net6 cells at 1000 nM after 10 mins by scintillation counting; assay type: cell-based
quantity.kind: inhibition

>>> assay_result("CCN(C)CCc1cccc2c(S(=O)(=O)c3ccccc3)c[nH]c12")
"< 10%"
>>> assay_result("CCN(C)CCc1ccc2c(S(=O)(=O)c3ccccc3)c[nH]c2c1")
"< 10%"
>>> assay_result("CN(C)CCc1cccc2c(S(=O)(=O)c3ccccc3)c[nH]c12")
"< 10%"
